Target: UniProtKB Q9F2F0
Sequence (Q9F2F0 1-203): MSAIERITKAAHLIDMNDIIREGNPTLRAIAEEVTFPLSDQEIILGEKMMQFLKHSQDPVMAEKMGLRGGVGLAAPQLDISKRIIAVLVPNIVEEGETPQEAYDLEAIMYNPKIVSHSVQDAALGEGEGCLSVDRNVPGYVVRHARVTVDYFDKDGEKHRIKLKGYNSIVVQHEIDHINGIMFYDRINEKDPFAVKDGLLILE
As shown below, each of these compounds has a reported IC50 value.
metric name: IC50 (nM)

INSERT INTO measurements (compound, subject_of_test, number) VALUES
  ('CCCC[C@H](CN(O)C=O)C(=O)N1CCC[C@H]1C(=O)Nc1ccc(F)c[n+]1[O-] [reference compound]', 'UniProtKB Q9F2F0', 0.31),
  ('CCCC[C@H](CN(O)C=O)C(=O)N1C[C@@H](C(C)C)C[C@H]1C(=O)Nc1ccc(F)cn1', 'UniProtKB Q9F2F0', 0.31),
  ('CCCC[C@H](CN(O)C=O)C(=O)N1C[C@@H](C(C)C)C[C@H]1C(=O)Nc1ccc(F)c[n+]1[O-]', 'UniProtKB Q9F2F0', 0.23),
  ('CCCC[C@H](CN(O)C=O)C(=O)N1C[C@H](C(C)C)C[C@H]1C(=O)Nc1ccc(F)c[n+]1[O-]', 'UniProtKB Q9F2F0', 0.31);

====

Biological target: Streptococcus pneumoniae peptide deformylase G70V mutant (Streptococcus pneumoniae serotype 4, UniProt Q9F2F0, G70V)
Test: Inhibition of S. pneumoniae peptide deformylase activity, G70V mutant enzyme
Settings: PDF G70V
pIC50: −log10 of the molar value.
metric name: pIC50

INSERT INTO assay_data (compound, number) VALUES
  ('O=CN(O)C[C@@H](CC1CCCC1)C(=O)N1C[C@H](F)C[C@H]1C(=O)Nc1cnccn1', 9.30),
  ('CCCC[C@H](CN(O)C=O)C(=O)N1C[C@H](C(C)C)C[C@H]1C(=O)Nc1ccc(F)c[n+]1[O-]', 8.81),
  ('CCCC[C@H](CN(O)C=O)C(=O)N1C[C@H](C(C)C)C[C@H]1C(=O)Nc1ccc(F)cn1', 9.15),
  ('CCCC[C@H](CN(O)C=O)C(=O)N1CCC[C@H]1C(=O)Nc1ccc(F)c[n+]1[O-] [reference compound]', 8.87),
  ('CCCC[C@H](CN(O)C=O)C(=O)N1C[C@@H](C(C)C)C[C@H]1C(=O)Nc1ccc(F)cn1', 9.00),
  ('O=CN(O)C[C@@H](CC1CCCC1)C(=O)N1C[C@H](F)C[C@H]1C(=O)Nc1cncc[n+]1[O-]', 8.69),
  ('CCCC[C@H](CN(O)C=O)C(=O)N1C[C@@H](C(C)C)C[C@H]1C(=O)Nc1ccc(F)c[n+]1[O-]', 8.75);
